Provenance of the data: patent US12447153B2

Reported pIC50 values for a set of molecules
Target: ErbB2 with Exon 20 YVMA insertion (HER2-YVMA) (Homo sapiens (Human), UniProt P04626, INS775YVMA)
Sequence (P04626 other isoform, or with tags, fused parts or gaps ins YVMA behind 775): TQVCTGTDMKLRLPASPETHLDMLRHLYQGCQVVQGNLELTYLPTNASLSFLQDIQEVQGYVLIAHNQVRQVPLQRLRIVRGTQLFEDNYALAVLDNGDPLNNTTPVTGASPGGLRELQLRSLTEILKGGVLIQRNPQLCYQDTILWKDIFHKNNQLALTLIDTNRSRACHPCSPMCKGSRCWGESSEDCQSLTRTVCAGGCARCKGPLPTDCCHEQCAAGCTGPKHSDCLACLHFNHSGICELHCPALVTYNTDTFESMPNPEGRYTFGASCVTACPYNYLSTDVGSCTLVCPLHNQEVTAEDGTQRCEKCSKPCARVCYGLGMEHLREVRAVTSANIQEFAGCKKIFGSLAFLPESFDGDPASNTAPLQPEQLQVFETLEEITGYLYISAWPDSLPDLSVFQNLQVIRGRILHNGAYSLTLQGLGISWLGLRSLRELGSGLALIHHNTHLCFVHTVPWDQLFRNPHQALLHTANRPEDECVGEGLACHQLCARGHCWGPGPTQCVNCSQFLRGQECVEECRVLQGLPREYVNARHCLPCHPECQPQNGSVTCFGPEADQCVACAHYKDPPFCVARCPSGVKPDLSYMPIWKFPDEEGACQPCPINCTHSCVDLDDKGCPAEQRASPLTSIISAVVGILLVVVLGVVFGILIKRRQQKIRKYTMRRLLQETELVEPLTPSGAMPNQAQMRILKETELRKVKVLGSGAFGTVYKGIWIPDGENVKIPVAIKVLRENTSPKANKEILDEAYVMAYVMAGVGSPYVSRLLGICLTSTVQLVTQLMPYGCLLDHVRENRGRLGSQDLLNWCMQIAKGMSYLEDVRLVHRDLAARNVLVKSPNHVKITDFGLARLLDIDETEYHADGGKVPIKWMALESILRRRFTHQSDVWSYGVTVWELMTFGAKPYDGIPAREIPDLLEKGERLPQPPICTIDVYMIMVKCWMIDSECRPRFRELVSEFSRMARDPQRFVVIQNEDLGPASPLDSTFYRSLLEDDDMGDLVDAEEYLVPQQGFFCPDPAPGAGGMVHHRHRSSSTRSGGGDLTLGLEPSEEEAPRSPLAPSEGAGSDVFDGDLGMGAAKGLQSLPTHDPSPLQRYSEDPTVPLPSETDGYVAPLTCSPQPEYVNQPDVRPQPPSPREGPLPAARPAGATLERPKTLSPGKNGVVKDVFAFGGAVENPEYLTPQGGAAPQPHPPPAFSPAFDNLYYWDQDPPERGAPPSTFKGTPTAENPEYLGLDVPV
Test: Cellular Phosphorylation Assay, Assay 4 (constitutive ErbB2 phosphorylation, NIH 3T3 cells)
Assay type: cell-based
Details: cellular ErbB2 YVMA phosphorylation
Please report pIC50 as the negative decimal logarithm of the molar concentration, giving only the number.

Reference set, count: 2
> print(dat)
                                   molecule  obs.value
1  C=CC(=O)N1C[C@@H](c2ccc3ncnc(Nc4cc(C)c(Oc5ccn6ncnc6c5)cc4F)c3n2)C[C@@H]1C (mixture of isomers)       7.23
2  C=CC(=O)N1[C@H](C)CN(c2ccc3ncnc(Nc4ccc(Oc5cnc6c(c5)ncn6C)c(C)c4F)c3n2)C[C@@H]1C       7.53

Request: Consider the molecule `C=CC(=O)N1C[C@H]2CC[C@H](c3ccc4ncnc(Nc5ccc(Oc6ccn7ncnc7c6)c(C)c5F)c4n3)[C@H]2C1` and give its measured pIC50.
Response: 7.45
